Origin of the recorded values: ChEMBL document CHEMBL1154635

Biological target: Nucleic Acid
Assay: Displacement of fluorescent pyrene-neomycin conjugate from tau stem-loop RNA
pEC50: −log10 of the molar value.
TEST READOUT: pEC50

| SMI | pEC50 |
| --- | --- |
| NCCNCCNCCNc1ccc(NCCNCCO)c2c1C(=O)c1c(O)ccc(O)c1C2=O | 6.42 |

1: O=C1c2c(O)ccc(NCCNCCO)c2C(=O)c2c(NCCNCCO)ccc(NCCNCCO)c21
2: O=C1c2c(F)ccc(F)c2C(=O)c2c(NCCNCCO)ccc(NCCNCCO)c21
Field: lower pEC50 | Options: 1 / 2 Selection: enter the item's label.
2

P: O=C1c2c(NCCNCCO)ccc(NCCNCCO)c2C(=O)c2c(NCCNCCO)ccc(NCCNCCO)c21
Q: CC(C)(C)OC(=O)NCCNCCNc1ccc(NCCNCCO)c2c1C(=O)c1c(O)ccc(O)c1C2=O
R: NCCNCCNCCNc1ccc(NCCNCCNCCN)c2c1C(=O)c1c(O)ccc(O)c1C2=O
Ascending by pEC50, please. Form entry: labels listed in requested order.
Q, P, R
(Q: 4.92, P: 5.92, R: 6.89)

* * *

Molecular target: Nucleic Acid
Assay: Displacement of fluorescent pyrene-neomycin conjugate from tau stem-loop RNA
Catalogue of pEC50 readings, one per entry.
Scale: negative log10 of molar concentration, which is what pEC50 denotes.

Briefly, pEC50 measured for O=C1c2c(O)ccc(O)c2C(=O)c2c(NCCNCCO)ccc(F)c21 : 4.12

response.value for O=C1c2c(O)ccc(O)c2C(=O)c2c(NCCNCCO)ccc(NCCNCCO)c21 (field: pEC50) = 6.05
